Data provenance: ChEMBL document CHEMBL1275417

System: Streptococcus pneumoniae
assay-summary: Antibacterial activity against Streptococcus pneumoniae ATCC 49619 by broth microdilution method
Type: functional
measured-quantity: MIC

{"record-smiles": "CCCc1cc(C(=O)Nc2c(O)c3ccc(O[C@@H]4OC(C)(C)[C@H](OC)[C@@H](OC(=O)c5ccc(C)[nH]5)[C@H]4O)c(C)c3oc2=O)ccc1O", "target-entity": "Streptococcus pneumoniae", "MIC": "2 µg/mL"}
{"record-smiles": "COc1cc(/C=C/C(=O)Nc2c(O)c3ccc(O[C@@H]4OC(C)(C)[C@H](OC)[C@@H](OC(=O)c5ccc(C)[nH]5)[C@H]4O)c(Cl)c3oc2=O)ccc1O", "target-entity": "Streptococcus pneumoniae", "MIC": "8 µg/mL"}

Batch request: MIC for each of the following compounds.
1. CO[C@@H]1[C@@H](OC(=O)c2ccc(C)[nH]2)[C@@H](O)[C@H](Oc2ccc3c(O)c(NC(=O)c4cc(C)c(O)c(C)c4)c(=O)oc3c2)OC1(C)C
2. CO[C@@H]1[C@@H](OC(N)=O)[C@@H](O)[C@H](Oc2ccc3c(O)c(NC(=O)c4ccc(O)c(CC=C(C)C)c4)c(=O)oc3c2C)OC1(C)C
3. CO[C@@H]1[C@@H](OC(=O)c2ccc(C)[nH]2)[C@@H](O)[C@H](Oc2ccc3c(O)c(NC(=O)c4ccc(N)c(C)c4)c(=O)oc3c2C)OC1(C)C
4. C=CCc1cc(C(=O)Nc2c(O)c3ccc(O[C@@H]4OC(C)(C)[C@H](OC)[C@@H](OC(=O)c5ccc(C)[nH]5)[C@H]4O)c(C)c3oc2=O)ccc1O

["8 µg/mL", "1 µg/mL", "4 µg/mL", "1 µg/mL"]

###

target-entity: UniProt:P0AFZ5
Sequence (P0AFZ5 whole entry): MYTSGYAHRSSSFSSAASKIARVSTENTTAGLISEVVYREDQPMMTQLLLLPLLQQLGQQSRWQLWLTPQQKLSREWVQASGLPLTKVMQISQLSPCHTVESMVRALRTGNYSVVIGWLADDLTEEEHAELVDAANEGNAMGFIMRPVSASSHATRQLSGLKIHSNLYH
assay-summary: Inhibition of Escherichia coli K-12 DNA sulA expressed in Escherichia coli DC2 assessed as compound concentration required for => 4-fold induction of luxCDABE operon by reported gene assay
Activity calls are given as the source filed them. The calls are words filed in the database; no cut-off is given here.
measured-quantity: Activity

{"record-smiles": "CO[C@@H]1[C@@H](O)[C@@H](OC(=O)c2ccc(C)[nH]2)[C@H](Oc2ccc3c(O)c(NC(=O)c4cc(C)c(O)c(C)c4)c(=O)oc3c2Cl)OC1(C)C", "Activity": "100 µM"}
{"record-smiles": "CO[C@@H]1[C@@H](O)[C@@H](O)[C@H](Oc2ccc3c(O)c(NC(=O)c4ccccc4)c(=O)oc3c2C)OC1(C)C", "Activity": "inactive"}
{"record-smiles": "COc1cc(C(=O)Nc2c(O)c3ccc(O[C@@H]4OC(C)(C)[C@H](OC)[C@@H](OC(=O)c5ccc(C)[nH]5)[C@H]4O)cc3oc2=O)ccc1O", "Activity": "25 µM"}
{"record-smiles": "CO[C@@H]1[C@@H](OC(=O)c2ccc(C)[nH]2)[C@@H](O)[C@H](Oc2ccc3c(O)c(NC(=O)c4ccc(O)c(CC=C(C)C)c4)c(=O)oc3c2Cl)OC1(C)C", "Activity": "< 1 µM"}
{"record-smiles": "CO[C@@H]1[C@@H](OC(=O)c2ccc(C)[nH]2)[C@@H](O)[C@H](Oc2ccc3c(O)c(NC(=O)/C=C/c4ccccc4)c(=O)oc3c2Cl)OC1(C)C", "Activity": "3.1 µM"}

Now look at this entry.
What does the data say about its Activity? Entry: CO[C@@H]1[C@@H](O)[C@@H](O)[C@H](Oc2ccc3c(O)c(NC(=O)c4cc(C)c(O)c(C)c4)c(=O)oc3c2C)OC1(C)C
inactive

###

target-entity: DNA gyrase subunit B (Escherichia coli, UniProt P0AES6)
assay-summary: Inhibition of Escherichia coli JM109 DNA gyrase subunit B assessed as ATP hydrolysis by ATPase assay
// NB: equality with 100 nM counts as 0.0; only IC50 strictly below is 1.0

Worked cases, answers included:
{"record-smiles": "CO[C@@H]1[C@@H](OC(=O)c2ccc(C)[nH]2)[C@@H](O)[C@H](Oc2ccc3c(O)c(NC(=O)/C=C/c4ccccc4)c(=O)oc3c2C)OC1(C)C", "group": 0.0}
{"record-smiles": "CO[C@@H]1[C@@H](O)[C@@H](O)[C@H](Oc2ccc3c(O)c(NC(=O)/C=C/c4ccccc4)c(=O)oc3c2C)OC1(C)C", "group": 0.0}

Identify whether the molecule CO[C@@H]1[C@@H](OC(=O)c2ccc(C)[nH]2)[C@@H](O)[C@H](Oc2ccc3c(O)c(NC(=O)c4ccccc4)c(=O)oc3c2)OC1(C)C records IC50 below 100 nM.
0.0

Regarding CO[C@@H]1[C@@H](O)[C@@H](O)[C@H](Oc2ccc3c(O)c(NC(=O)c4cc(C)c(O)c(C)c4)c(=O)oc3c2C)OC1(C)C , kindly confirm whether its IC50 is beneath 100 nM.
0.0

Quick check: does CO[C@@H]1[C@@H](OC(=O)c2ccc(C)[nH]2)[C@@H](O)[C@H](Oc2ccc3c(O)c(NC(=O)c4ccccc4)c(=O)oc3c2C)OC1(C)C have IC50 under 100 nM?
0.0

Does the reported IC50 of the following molecule sit strictly below 100 nM? C=CCc1cc(C(=O)Nc2c(O)c3ccc(O[C@@H]4OC(C)(C)[C@H](OC)[C@@H](O)[C@H]4OC(=O)c4ccc(C)[nH]4)c(C)c3oc2=O)ccc1O
0.0

Here's an entry: CO[C@@H]1[C@@H](OC(=O)c2ccc(C)[nH]2)[C@@H](O)[C@H](Oc2ccc3c(O)c(NC(=O)/C=C/c4ccccc4)c(=O)oc3c2Cl)OC1(C)C . Is its IC50 below 100 nM?
1.0

is_below(IC50, 100 nM) for CO[C@@H]1[C@@H](OC(=O)c2ccc(C)[nH]2)[C@@H](O)[C@H](Oc2ccc3c(O)c(NC(=O)/C=C/c4ccc(O)c(Cl)c4)c(=O)oc3c2Cl)OC1(C)C ?
0.0

Determine whether this molecule shows IC50 lower than 100 nM (ties excluded): CCCc1cc(C(=O)Nc2c(O)c3ccc(O[C@@H]4OC(C)(C)[C@H](OC)[C@@H](O)[C@H]4OC(=O)c4ccc(C)[nH]4)c(C)c3oc2=O)ccc1O
0.0

In the record for CCCc1cc(C(=O)Nc2c(O)c3ccc(O[C@@H]4OC(C)(C)[C@H](OC)[C@@H](O)[C@H]4O)c(C)c3oc2=O)ccc1O , is IC50 less than 100 nM?
0.0

In plain terms, does CO[C@@H]1[C@@H](OC(=O)c2ccc(C)[nH]2)[C@@H](O)[C@H](Oc2ccc3c(O)c(NC(=O)c4cc(C)c(O)c(C)c4)c(=O)oc3c2)OC1(C)C come in under 100 nM for IC50?
0.0

Please check: IC50 for COc1cc(C(=O)Nc2c(O)c3ccc(O[C@@H]4OC(C)(C)[C@H](OC)[C@@H](O)[C@H]4O)c(C)c3oc2=O)ccc1O , strictly under 100 nM or not?
0.0

Quick check: IC50 of CO[C@@H]1[C@@H](OC(=O)c2ccc(C)[nH]2)[C@@H](O)[C@H](Oc2ccc3c(O)c(NC(=O)c4ccc(O)c(NC(=O)C(C)C)c4)c(=O)oc3c2Cl)OC1(C)C under 100 nM?
1.0

###

Test system: Streptococcus pneumoniae
assay-summary: Antibacterial activity against Streptococcus pneumoniae TUPELO by broth microdilution method
Type: functional
Kindly state MIC for each of the entries shown.
One number for each entry, in µg/mL.

Consider the reported MIC for these compounds:
{"compound": "CO[C@@H]1[C@@H](OC(=O)c2ccc(C)[nH]2)[C@@H](O)[C@H](Oc2ccc3c(O)c(NC(=O)c4cc(C)c(O)c(C)c4)c(=O)oc3c2)OC1(C)C", "target-entity": "Streptococcus pneumoniae", "MIC, µg/mL": 16}
{"compound": "CO[C@@H]1[C@@H](OC(=O)c2ccc(C)[nH]2)[C@@H](O)[C@H](Oc2ccc3c(O)c(NC(=O)c4ccc(O)c(NC(=O)C(C)C)c4)c(=O)oc3c2Cl)OC1(C)C", "target-entity": "Streptococcus pneumoniae", "MIC, µg/mL": 16}
{"compound": "CO[C@@H]1[C@@H](OC(=O)c2ccc(C)[nH]2)[C@@H](O)[C@H](Oc2ccc3c(O)c(NC(=O)c4ccc(O)c(CC=C(C)C)c4)c(=O)oc3c2Cl)OC1(C)C [CHLOROBIOCIN]", "target-entity": "Streptococcus pneumoniae", "MIC, µg/mL": 1}
{"compound": "COc1cc(C(=O)Nc2c(O)c3ccc(O[C@@H]4OC(C)(C)[C@H](OC)[C@@H](OC(=O)c5ccc(C)[nH]5)[C@H]4O)c(C)c3oc2=O)ccc1O", "target-entity": "Streptococcus pneumoniae", "MIC, µg/mL": 4}
{"compound": "COc1cc(C(=O)Nc2c(O)c3ccc(O[C@@H]4OC(C)(C)[C@H](OC)[C@@H](OC(=O)c5ccc(C)[nH]5)[C@H]4O)c(Cl)c3oc2=O)ccc1O", "target-entity": "Streptococcus pneumoniae", "MIC, µg/mL": 8}

Please state MIC for every compound in the list that follows.
1. CO[C@@H]1[C@@H](OC(=O)c2ccc(C)[nH]2)[C@@H](O)[C@H](Oc2ccc3c(O)c(NC(=O)c4ccc(SC)cc4)c(=O)oc3c2Cl)OC1(C)C
2. CCCc1cc(C(=O)Nc2c(O)c3ccc(O[C@@H]4OC(C)(C)[C@H](OC)[C@@H](OC(=O)c5ccc(C)[nH]5)[C@H]4O)c(C)c3oc2=O)ccc1O
3. CO[C@@H]1[C@@H](OC(=O)c2ccc(C)[nH]2)[C@@H](O)[C@H](Oc2ccc3c(O)c(NC(=O)/C=C/c4ccccc4)c(=O)oc3c2Cl)OC1(C)C

1. 16
2. 4
3. 16
